Target: T1, human gpNMB (Human Osteoactivin, His-tag, AcroBioSystems) (human, UniProt Q14956-2 23-486, limits assumed)
T1 sequence (looked up): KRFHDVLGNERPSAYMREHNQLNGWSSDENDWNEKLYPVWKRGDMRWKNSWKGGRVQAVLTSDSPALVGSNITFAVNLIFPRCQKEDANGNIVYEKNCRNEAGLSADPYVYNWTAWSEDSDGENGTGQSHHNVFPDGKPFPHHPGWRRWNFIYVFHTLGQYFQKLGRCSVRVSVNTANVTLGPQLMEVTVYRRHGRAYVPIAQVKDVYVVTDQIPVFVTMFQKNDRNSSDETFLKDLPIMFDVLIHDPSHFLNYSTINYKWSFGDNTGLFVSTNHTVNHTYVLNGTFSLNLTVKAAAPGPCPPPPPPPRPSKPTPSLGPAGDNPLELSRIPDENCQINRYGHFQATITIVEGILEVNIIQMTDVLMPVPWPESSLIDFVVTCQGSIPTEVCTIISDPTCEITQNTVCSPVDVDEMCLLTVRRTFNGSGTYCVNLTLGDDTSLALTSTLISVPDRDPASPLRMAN
Assay: SPR Biacore 8K, antibody captured on protein A, gpNMB as analyte
property: Kd (nM)
Lab book: enter the figure in nM, no units written.

{"binder": "hGPN18-5_H1L2 (antibody, V domains shown, humanized; also called hGPN18-5_VH1+VL2) VH: QVQLVQSGAEVKKPGASVKVSCKASGYTFTTYWMNWVRQAPGQGLEWIGAINPSNDYTEYNQKFKDRVTMTADTSTSTVYMELSSLRSEDTAVYYCGRSYSPDYWGQGTTVTVSS VL: DIQMTQSPSSLSASVGDRVTITCKASQNVDNHVAWFQQKPGKAPKALIYSASYRYSGVPDRFSGSGSGTDFTLTISSLQPEDFATYFCQQYKSYPFTFGGGTKLEIK", "value units": "nM", "Kd": 423}
{"binder": "hGPN18-5_H2L1 (antibody, V domains shown, humanized; also called hGPN18-5_VH2+VL1) VH: QVQLVQSGAEVKKPGASVKVSCKASGYTFTTYWMNWVRQAPGQGLEWIGAINPSNDYTEYNQKFKDRATMTADTSTSTVYMELSSLRSEDTAVYYCGRSYSPDYWGQGTTVTVSS VL: DIQMTQSPSSLSASVGDRVTITCKASQNVDNHVAWFQQKPGKAPKALIYSASYRYSGVPSRFSGSGSGTDFTLTISSLQPEDFATYFCQQYKSYPFTFGGGTKLEIK", "value units": "nM", "Kd": 661}

Next:
# input Look up Kd for this binder: hGPN18-5_H2L2 (antibody, V domains shown, humanized; also called hGPN18-5_VH2+VL2) VH: QVQLVQSGAEVKKPGASVKVSCKASGYTFTTYWMNWVRQAPGQGLEWIGAINPSNDYTEYNQKFKDRATMTADTSTSTVYMELSSLRSEDTAVYYCGRSYSPDYWGQGTTVTVSS VL: DIQMTQSPSSLSASVGDRVTITCKASQNVDNHVAWFQQKPGKAPKALIYSASYRYSGVPDRFSGSGSGTDFTLTISSLQPEDFATYFCQQYKSYPFTFGGGTKLEIK
# output 763
